# Tested on: 217524-143-R1-J4-PDC spheroids with HUVEC/MSC, viability
# measurement-description: Anticancer human tumor 217524-143-R1-J4-PDC patient-derived pancreatic carcinoma cell line growth inhibition [CLK]
# test-settings: second compound 0.0316 µM; first compound 0.1 µM; stronger effect = lower value
reported-endpoint: viability, T/C (%)
Please give a number only; it is taken to be in %.

Write viability, T/C of COc1cccc2c1C(=O)c1c(O)c3c(c(O)c1C2=O)CC(O)(C(=O)CO)CC3OC1CC(N)C(O)C(C)O1 (stereo not drawn) + CN1CCN(c2cc(C(=O)Nc3cc4cc(-c5cnn(C)c5)ccc4cn3)ccn2)CC1 ; system used: 217524-143-R1-J4-PDC spheroids with HUVEC/MSC, viability 22.6

Write down measured viability, T/C (217524-143-R1-J4-PDC spheroids with HUVEC/MSC, viability) for this compound. Cn1ncnc1[C@H]1c2n[nH]c(=O)c3cc(F)cc(c23)N[C@@H]1c1ccc(F)cc1 + CNC(=O)c1ccc(Nc2nc(OC3CCCC3)c3c(-c4ccc5nc(C)oc5c4)c[nH]c3n2)c(OC)c1 75.5

// fetch viability, T/C for C=C(F)C(=O)N1CCN(c2nc(OCC3CCCN3C)nc3c2CCN(c2cccc4cccc(Cl)c24)C3)CC1CC#N (stereo not drawn) + CN1CCN(c2cc(C(=O)Nc3cc4cc(-c5cnn(C)c5)ccc4cn3)ccn2)CC1 ; system: 217524-143-R1-J4-PDC spheroids with HUVEC/MSC, viability 89.9

###

Kindly supply the reported pIC50 values for the records listed here.
# Test system: 217524-143-R1-J4-PDC spheroids with HUVEC/MSC, viability
# measurement-description: Anticancer human tumor 217524-143-R1-J4-PDC cell line growth inhibition [CLK];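 further: spheroids exposed to agents for seven days before reading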
# test-settings: curve of compound
pIC50: −log10 of the molar value.

Note down pIC50 recorded for Cn1ncnc1[C@H]1c2n[nH]c(=O)c3cc(F)cc(c23)N[C@@H]1c1ccc(F)cc1 < 7.00

Please give measured pIC50 of the following entry: COc1cccc2c1C(=O)c1c(O)c3c(c(O)c1C2=O)CC(O)(C(=O)CO)CC3OC1CC(N)C(O)C(C)O1 (stereo not drawn) > 7.50

In one line, give reported pIC50 of the entry C#Cc1c(F)ccc2cc(O)cc(-c3ncc4c(N5CC6CCC(C5)N6)nc(OCC56CCCN5CC(F)C6)nc4c3F)c12 (stereo not drawn) . < 5.00

Quick one: give measured pIC50 for CC(=O)O[C@H]1C(=O)[C@@]2(C)[C@H]([C@H](OC(=O)c3ccccc3)[C@]3(O)C[C@H](OC(=O)[C@H](O)[C@@H](NC(=O)c4ccccc4)c4ccccc4)C(C)=C1C3(C)C)[C@]1(OC(C)=O)CO[C@@H]1C[C@@H]2O > 7.50

Name the recorded pIC50 of the compound listed here: CCCS(=O)(=O)Nc1ccc(F)c(C(=O)c2c[nH]c3ncc(-c4ccc(Cl)cc4)cc23)c1F < 5.00

Could you please provide reported pIC50 for C=CC(=O)N1CCN(c2nc(=O)n(-c3c(C)ccnc3C(C)C)c3nc(-c4c(O)cccc4F)c(F)cc23)C(C)C1 (stereo not drawn) ? Thanks! < 5.00

Read the entry O=C(c1cc(Cc2n[nH]c(=O)c3ccccc23)ccc1F)N1CCN(C(=O)C2CC2)CC1 and write its reported pIC50. < 5.00

Specify reported pIC50 for the compound shown: CC(CO)NC(=O)c1cc(-c2ccc(Cl)cc2)nn(-c2cnn(C)c2)c1=O (stereo not drawn) < 5.00

###

Kindly supply the reported viability, T/C values for the records listed here.
# Test system: 217524-143-R1-J4-PDC spheroids with HUVEC/MSC, viability
# measurement-description: Anticancer human tumor 217524-143-R1-J4-PDC cell line growth inhibition [CLK];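 further: spheroids exposed to agents for seven days before reading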;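 on viability, T/C: 100% = DMSO vehicle control viability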
# test-settings: second compound 3.16 µM; first compound 0.000949 µM; stronger effect = lower value
# Source text: A high-throughput screen of multi-cell type tumor spheroids was designed to identify active combinations of […] and targeted small molecules. Complex spheroids include a stromal component modeled by human endothelial cells (HUVEC) and fibroblasts modeled by human mesenchymal stem cells (MSCs). […] Compounds. […] If the clinical Cmax for an agent had not been determined, the highest concentration tested was 10 microM. […]

Give viability, T/C for CC(C)CC(NC(=O)C(Cc1ccccc1)NC(=O)c1cnccn1)B(O)O (centres undefined) + CNC(=O)c1ccc(Nc2nc(OC3CCCC3)c3c(-c4ccc5nc(C)oc5c4)c[nH]c3n2)c(OC)c1 25.7%

Specify reported viability, T/C for the compound shown: C=CC(=O)Nc1cc(Nc2nccc(-c3cn(C)c4ccccc34)n2)c(OC)cc1N(C)CCN(C)C + CN1CCN(c2cc(C(=O)Nc3cc4cc(-c5cnn(C)c5)ccc4cn3)ccn2)CC1 1.11%

Tell us which viability, T/C value is on record for C=CC(=O)Nc1cc(Nc2nccc(-c3cn(C)c4ccccc34)n2)c(OC)cc1N(C)CCN(C)C + CNC(=O)c1ccc(Nc2nc(OC3CCCC3)c3c(-c4ccc5nc(C)oc5c4)c[nH]c3n2)c(OC)c1 31.4%

Query viability, T/C for CC(C)CC(NC(=O)C(Cc1ccccc1)NC(=O)c1cnccn1)B(O)O (centres undefined) + CN1CCN(c2cc(C(=O)Nc3cc4cc(-c5cnn(C)c5)ccc4cn3)ccn2)CC1 0.67%

###

# Test system: 217524-143-R1-J4-PDC spheroids with HUVEC/MSC, viability
# measurement-description: Anticancer human tumor 217524-143-R1-J4-PDC cell line growth inhibition [CLK];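 further: spheroids exposed to agents for seven days before reading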;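 on viability, T/C: 100% = DMSO vehicle control viability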
# test-settings: second compound 10 µM; first compound 0.0316 µM; stronger effect = lower value
reported-endpoint: viability, T/C (%)
State the answer as a number, implicitly in %.

Let me know recorded viability, T/C for C=CC(=O)N1CCN(c2nc(=O)n(-c3c(C)ccnc3C(C)C)c3nc(-c4c(O)cccc4F)c(F)cc23)C(C)C1 (stereo unspecified) + CNC(=O)c1ccc(Nc2nc(OC3CCCC3)c3c(-c4ccc5nc(C)oc5c4)c[nH]c3n2)c(OC)c1 , thanks. 27.9

Identify viability, T/C associated with the molecule COc1c(OCCCN2CCOCC2)ccc2c3n(c(=NC(=O)c4cnc(N)nc4)nc12)CCN3 + CNC(=O)c1ccc(Nc2nc(OC3CCCC3)c3c(-c4ccc5nc(C)oc5c4)c[nH]c3n2)c(OC)c1 5

Tell me its viability, T/C given Cn1ncnc1[C@H]1c2n[nH]c(=O)c3cc(F)cc(c23)N[C@@H]1c1ccc(F)cc1 + CN1CCN(c2cc(C(=O)Nc3cc4cc(-c5cnn(C)c5)ccc4cn3)ccn2)CC1 as the entry. 0.18

Complete the entry with viability, T/C for CCN1CCN(Cc2ccc(Nc3ncc(F)c(-c4cc(F)c5nc(C)n(C(C)C)c5c4)n3)nc2)CC1 + CNC(=O)c1ccc(Nc2nc(OC3CCCC3)c3c(-c4ccc5nc(C)oc5c4)c[nH]c3n2)c(OC)c1 23.8

Using the record for CCCS(=O)(=O)Nc1ccc(F)c(C(=O)c2c[nH]c3ncc(-c4ccc(Cl)cc4)cc23)c1F + CN1CCN(c2cc(C(=O)Nc3cc4cc(-c5cnn(C)c5)ccc4cn3)ccn2)CC1 , state its measured viability, T/C. 0.29

Read the entry O=c1[nH]cc(F)c(=O)[nH]1 + CNC(=O)c1ccc(Nc2nc(OC3CCCC3)c3c(-c4ccc5nc(C)oc5c4)c[nH]c3n2)c(OC)c1 and write its reported viability, T/C. 23.2

Find the measured viability, T/C of CC1COCCN1c1cc(C2(S(C)(=N)=O)CC2)nc(-c2ccnc3[nH]ccc23)n1 (stereo unspecified) + CN1CCN(c2cc(C(=O)Nc3cc4cc(-c5cnn(C)c5)ccc4cn3)ccn2)CC1 and report it. 0.21

Return value of viability, T/C for input C=C(F)C(=O)N1CCN(c2nc(OCC3CCCN3C)nc3c2CCN(c2cccc4cccc(Cl)c24)C3)CC1CC#N (stereo unspecified) + CNC(=O)c1ccc(Nc2nc(OC3CCCC3)c3c(-c4ccc5nc(C)oc5c4)c[nH]c3n2)c(OC)c1 , no commentary. 26.5

Give the reported viability, T/C for this molecule. COc1c(OCCCN2CCOCC2)ccc2c3n(c(=NC(=O)c4cnc(N)nc4)nc12)CCN3 + CN1CCN(c2cc(C(=O)Nc3cc4cc(-c5cnn(C)c5)ccc4cn3)ccn2)CC1 0.19

Return viability, T/C (reported value) for this molecule: Nc1ccccc1NC(=O)c1ccc(CNC(=O)OCc2cccnc2)cc1 + CN1CCN(c2cc(C(=O)Nc3cc4cc(-c5cnn(C)c5)ccc4cn3)ccn2)CC1 0.13

For the molecule CCCS(=O)(=O)Nc1ccc(F)c(C(=O)c2c[nH]c3ncc(-c4ccc(Cl)cc4)cc23)c1F + CNC(=O)c1ccc(Nc2nc(OC3CCCC3)c3c(-c4ccc5nc(C)oc5c4)c[nH]c3n2)c(OC)c1 , give its measured viability, T/C value. 29.6

###

# System: 217524-143-R1-J4-PDC spheroids with HUVEC/MSC, viability
# measurement-description: Anticancer human tumor 217524-143-R1-J4-PDC cell line growth inhibition [CLK]; active = viability on the fitted dose curve at most 10% of control; inactive = the rest;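 further: spheroids exposed to agents for seven days before reading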
# test-settings: second compound 3.16 µM; first compound 10 µM
Permitted responses: Yes (active), No (inactive)

For this compound, state the assay outcome: CC1(C)CCC(CN2CCN(c3ccc(C(=O)NS(=O)(=O)c4ccc(NCC5CCOCC5)c([N+](=O)[O-])c4)c(Oc4cnc5[nH]ccc5c4)c3)CC2)=C(c2ccc(Cl)cc2)C1 + CNC(=O)c1ccc(Nc2nc(OC3CCCC3)c3c(-c4ccc5nc(C)oc5c4)c[nH]c3n2)c(OC)c1 No

What did the test return for COc1ccc([C@@H](O)c2cc(-c3ncnc4cc(N5CCOCC5)ccc34)c(F)cc2Cl)nn1 + CNC(=O)c1ccc(Nc2nc(OC3CCCC3)c3c(-c4ccc5nc(C)oc5c4)c[nH]c3n2)c(OC)c1 ? Yes

Call for entry CC1COCCN1c1cc(C2(S(C)(=N)=O)CC2)nc(-c2ccnc3[nH]ccc23)n1 (centres undefined) + CNC(=O)c1ccc(Nc2nc(OC3CCCC3)c3c(-c4ccc5nc(C)oc5c4)c[nH]c3n2)c(OC)c1 : Yes

Tell me the recorded outcome of this test for CCCS(=O)(=O)Nc1ccc(F)c(C(=O)c2c[nH]c3ncc(-c4ccc(Cl)cc4)cc23)c1F + CNC(=O)c1ccc(Nc2nc(OC3CCCC3)c3c(-c4ccc5nc(C)oc5c4)c[nH]c3n2)c(OC)c1 . No

Tell me the recorded outcome of this test for CC1COCCN1c1cc(C2(S(C)(=N)=O)CC2)nc(-c2ccnc3[nH]ccc23)n1 (centres undefined) + CN1CCN(c2cc(C(=O)Nc3cc4cc(-c5cnn(C)c5)ccc4cn3)ccn2)CC1 . Yes

Lab log entry: CCCS(=O)(=O)Nc1ccc(F)c(C(=O)c2c[nH]c3ncc(-c4ccc(Cl)cc4)cc23)c1F + CN1CCN(c2cc(C(=O)Nc3cc4cc(-c5cnn(C)c5)ccc4cn3)ccn2)CC1 — outcome as called in the assay? Yes

Each compound tested received a call. Report the one for O=C(c1cc(Cc2n[nH]c(=O)c3ccccc23)ccc1F)N1CCN(C(=O)C2CC2)CC1 + CN1CCN(c2cc(C(=O)Nc3cc4cc(-c5cnn(C)c5)ccc4cn3)ccn2)CC1 . Yes

Identify the outcome logged in this assay for the compound shown: COC1C=CCC(C)C(C)S(=O)(=O)NC(=O)c2ccc3c(c2)N(CC2CCC21)CC1(CCCc2cc(Cl)ccc21)CO3 (centres undefined) + CN1CCN(c2cc(C(=O)Nc3cc4cc(-c5cnn(C)c5)ccc4cn3)ccn2)CC1 Yes

How was CC(=O)O[C@H]1C(=O)[C@@]2(C)[C@H]([C@H](OC(=O)c3ccccc3)[C@]3(O)C[C@H](OC(=O)[C@H](O)[C@@H](NC(=O)c4ccccc4)c4ccccc4)C(C)=C1C3(C)C)[C@]1(OC(C)=O)CO[C@@H]1C[C@@H]2O + CNC(=O)c1ccc(Nc2nc(OC3CCCC3)c3c(-c4ccc5nc(C)oc5c4)c[nH]c3n2)c(OC)c1 classified in this test? No

All values here come from PubChem BioAssay AID2060624.
